- System Under Test: T1, Claudin 18.2 (CLDN18.2), expressed on CHOS-CLDN 18.2 / HEK293-CLDN 18.2 / HCC827-CLDN 18.2 cells (human, UniProt P56856-2 1-261)
- T1 construct: whole, on cells; The species is not repeated for the CHOS-CLDN 18.2 cells; also called claudin-18A2
- Test Summary: FACS, CHOS-CLDN18.2 cells, 5 µg/ml
Measure Name: FACS reading
Field format: numeric only.

Here is how some binders turned out for FACS reading.
binder="QP14361435 (antibody, human IgG1, kappa, V domains shown, Humanized from QP190191) VH: EVQLVESGGGLVKPGGSLRLSCAASGFTFSNYAMSWVRQAPGKGLEWVSSIISGGRTYYLDSEKGRFTISRDNAKNSLYLQMNSLRAEDTAVYYCTRIYYGNSFDYWGQGTLVTVSS VL: DIVMTQSPDSLAVSLGERATISCKSSQSLLNSGNQKNYLTWYQQKPGQPPKLLIYWASTRESGVPDRFTGSGSGTDFTLTISSLQAEDVAVYYCQNDYSYPFTFGQGTKLEIKR" recorded_value=182000
binder="QP024025 (antibody, human IgG1, V domains shown, also called IMAB362; 175D10(IMAB362)) VH: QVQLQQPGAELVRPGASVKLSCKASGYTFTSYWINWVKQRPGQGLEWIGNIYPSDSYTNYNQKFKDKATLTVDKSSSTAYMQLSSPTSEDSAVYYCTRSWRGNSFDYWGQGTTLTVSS VL: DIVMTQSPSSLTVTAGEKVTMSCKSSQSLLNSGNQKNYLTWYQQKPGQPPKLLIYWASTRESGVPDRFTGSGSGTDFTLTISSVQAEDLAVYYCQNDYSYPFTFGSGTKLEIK" recorded_value=105000
binder="QP14371433 (antibody, human IgG1, kappa, V domains shown, Humanized from QP190191; also called QP14331437) VH: EVQLVESGGGLVKPGGSLRLSCAASGFTFSNYAMSWVRQAPGKGLEWVASIISGGRTYYLDSEKGRFTISRDNAKNSLYLQMNSLRAEDTAVYYCTRIYYGNSFDYWGQGTLVTVSS VL: DIVMTQSPDSLAVSLGERATINCKSSQSLLNSGNQKNYLTWYQQKPGQPPKLLIYWASTRESGVPDRFSGSGSGTDFTLTISSLQAEDVAVYYCQNDYSYPFTFGQGTKLEIKR" recorded_value=174000

For QP190191 (antibody, human IgG1, V domains shown, Chimeric; also called 36A2; mouse-derived chimeric antibody QP190191) VH: EVKLVESGGGLVKPGGSLKLSCAASGFTFSNYAMSWVRQTPEKRLEWVASIISGGRTYYLDSEKGRFTISRDNARNNLYLQMSSLRSEDTAMYYCTRIYYGNSFDYWGQGTTLTVSS VL: DIVMTQSPSSQTVTAGEKVTMSCKSSQSLLNSGNQKNYLTWYQQKPGQPPKLLIYWASTRESGVPDRFTGSGSGTDFTLTISNMQAEDLAVYYCQNDYSYPFTFGSGTKLEIK , what is its reported FACS reading?
148000
